Measured Kd accompanies every entry in the list below.
study target: T1, human tissue factor pathway inhibitor (TFPI) (human, UniProt P10646 29-304, limits assumed)
T1 construct: Bought protein; also called human TFPI; hTFPI
T1 sequence (looked up): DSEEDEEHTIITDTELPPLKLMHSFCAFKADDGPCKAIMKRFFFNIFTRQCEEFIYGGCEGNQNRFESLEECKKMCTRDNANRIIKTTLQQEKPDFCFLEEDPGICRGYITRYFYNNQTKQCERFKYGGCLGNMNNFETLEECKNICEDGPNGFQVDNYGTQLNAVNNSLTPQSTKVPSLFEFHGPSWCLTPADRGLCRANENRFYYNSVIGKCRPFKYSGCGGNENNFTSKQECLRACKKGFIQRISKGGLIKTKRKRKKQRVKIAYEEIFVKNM
assay text: Biacore, TFPI on CM5 chip, Fab in mobile phase
Quick note: give the figure in nM, leave out the unit.

Worked examples, 2 binders total:
• TP-2E5 Fab (Fab, V domains shown, Human Fab from HuCal Gold, expressed in E. coli TG1) VH: QVQLQQSGPGLVKPSQTLSLTCAISGDSVSSNSAAWSWIRQSPGRGLEWLGMIFYRSKWNNDYAVSVKSRITINPDTSKNQFSLQLNSVTPEDTAVYYCARVNANGYYAYVDLWGQGTLVTVSS VL: DIQMTQSPSSLSASVGDRVTITCRASQPIYNSLSWYQQKPGKAPKLLIYGVSNLQSGVPSRFSGSGSGTDFTLTISSLQPEDFAVYYCLQVDNLPITFGQGTKVEIKR = 115
• TP-2G9 Fab (Fab, V domains shown, Human Fab from HuCal Gold, expressed in E. coli TG1) VH: QVQLVESGGGLVQPGGSLRLSCAASGFTFNSYAMTWVRQAPGKGLEWVSAIKSDGSNTYYADSVKGRFTISRDNSKNTLYLQMNSLRAEDTAVYYCARNDSGWFDVWGQGTLVTVSS VL: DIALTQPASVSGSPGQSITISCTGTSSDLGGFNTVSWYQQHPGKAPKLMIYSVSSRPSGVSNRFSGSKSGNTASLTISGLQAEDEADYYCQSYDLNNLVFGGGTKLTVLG = 48.5

Query :: Which value of Kd has been reported for TP-3A4 Fab (Fab, V domains shown, Human Fab from HuCal Gold, expressed in E. coli TG1) VH: QVQLVESGGGLVQPGGSLRLSCAASGFTFSSYWMHWVRQAPGKGLEWVSSISYDSSNTYYADSVKGRFTISRDNSKNTLYLQMNSLRAEDTAVYYCARYGGMDYWGQGTLVTVSS VL: DIELTQPPSVSVAPGQTARISCSGDNLRDKYASWYQQKPGQAPVLVIYSKSERPSGIPERFSGSNSGNTATLTISGTQAEDEADYYCSSYTLNPNLNYVFGGGTKLTVLG in the records?
Result :: 21.6

Query :: Endpoint output: Kd of TP-3G3 Fab (Fab, V domains shown, Human Fab from HuCal Gold, expressed in E. coli TG1) VH: QVQLVESGGGLVQPGGSLRLSCAASGFTFSSYSMSWVRQAPGKGLEWVSSISSSSSNTYYGDSVKGRFTISRDNSKNTLYLQMNSLRAEDTAVYYCARMHYKGMDIWGQGTLVTVSS VL: DIQMTQSPSSLSASVGDRVTITCRASQNIHSHLNWYQQKPGKAPKLLIYDASSLQSGVPSRFSGSGSGTDFTLTISSLQPEDFAVYYCQQYYDYPLTFGQGTKVEIKR . Value?
Result :: 16
